Biological target: T1, human angiopoietin-2 protein (human, UniProt O15123 19-496)
T1 construct: bought; also called Ang-2; Ang2
T1 sequence (looked up): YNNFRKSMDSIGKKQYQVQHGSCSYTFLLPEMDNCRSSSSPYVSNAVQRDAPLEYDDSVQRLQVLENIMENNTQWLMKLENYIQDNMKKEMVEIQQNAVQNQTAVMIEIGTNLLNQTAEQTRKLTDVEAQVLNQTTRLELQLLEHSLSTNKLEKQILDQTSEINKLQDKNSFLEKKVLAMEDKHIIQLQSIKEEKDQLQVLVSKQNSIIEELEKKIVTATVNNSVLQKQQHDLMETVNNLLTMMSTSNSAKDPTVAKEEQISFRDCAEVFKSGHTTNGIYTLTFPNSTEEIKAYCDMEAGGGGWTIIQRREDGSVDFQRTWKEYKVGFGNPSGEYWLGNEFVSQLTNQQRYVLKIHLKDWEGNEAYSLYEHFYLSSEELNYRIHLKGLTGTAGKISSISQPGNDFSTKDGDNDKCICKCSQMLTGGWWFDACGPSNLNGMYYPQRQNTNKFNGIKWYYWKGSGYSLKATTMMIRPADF
Test: competitive ELISA, coated Ang-2, 0.25 nM hTie-2-Fc; T form
pIC50: −log10 of the molar value.
Readout Type: pIC50

binder="QXYQPLDELDXTXYDQFMLQQG (not fully specified; N-term acyl cap; C-term NH2 cap; AcK at 2; 0P linker on K11; Nva at 13) [Compound 41 (T): targeting peptide plus 0P linker]" value=5.87
binder="QXYQPLDELDXTLYDQFMLQQG (not fully specified; N-term PyC (pyridinyl carboxylate) cap; C-term NH2 cap; AcK at 2; 0P linker on K11) [Compound 51 (T): targeting peptide plus 0P linker]" value=7.84
binder="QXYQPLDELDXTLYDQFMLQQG (N-term DCB (dichlorobenzoyl) cap; C-term NH2 cap; AcK at 2; 0P linker on K11) [Compound 49 (T): targeting peptide plus 0P linker]" value=7.55
